Source listed as patent US20200399712A1.

# Tested on: HPV-16
# Procedure Summary: qPCR sensitivity against HPV-HNSCC tumor samples diluted among 10 ng normal human DNA
# Condition Notes: 32 HPV-HNSCC tumor samples
Kindly state sensitivity under 100 cells for each of the entries shown.
Note: a bare number is incomplete; add the unit.

>  <Molecule>
E7: previously designed (historical) HPV-16 E7 primers and Taqman probe, SEQ ID NO: 10-12; part of CLIA test (nucleic acid, Taqman probe, labels not given here, part of CLIA test) DNA 1: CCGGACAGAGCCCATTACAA DNA 2: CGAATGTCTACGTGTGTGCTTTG DNA 3: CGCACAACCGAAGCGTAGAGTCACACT

>  <Result Type>
sensitivity under 100 cells

>  <Result>
96.9%

$$$$

Now for another entry.
So what's the measured sensitivity under 100 cells for this one? BR E6-1: HPV-16 E6 region (172-373 bp) primer/probe set, SEQ ID NO: 58-60 (nucleic acid, chemistry not given here) DNA 1: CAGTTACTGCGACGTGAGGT DNA 2: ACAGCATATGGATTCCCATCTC DNA 3: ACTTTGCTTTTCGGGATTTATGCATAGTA 87.5%
